System: IGROV1 ovarian
procedure_summary: NCI tumour cell line growth inhibition, 48 h
Label Criterion met for high-side TGI (at or above 50 µM) and Criterion not met for low-side TGI (below it).

O=C(Nc1ccc2ncccc2c1)c1cc2c(cc1Cl)Sc1nccn1S2(=O)=O	Criterion not met
CC(=O)OC1CCC2(C)C(CCC3C4CC=C(C5(C)OCCO5)C4(C)CCC32)C1 (centres undefined)	Criterion met
O=C(Nc1ccc(Cl)cc1)c1cc2c(cc1Cl)Sc1nccn1S2(=O)=O	Criterion met

# input Determine whether measured TGI meets or exceeds 50 µM for CC1=C2C(=O)c3ccccc3C(=O)[C@H]2C[C@@H](N2CCCC2=O)O1
# output Criterion met

# input // same read-out, input: O=C(N/N=C/c1c(Cl)cccc1Cl)c1cccnc1Nc1cccc(C(F)(F)F)c1
# output Criterion met

# input Here is the next compound: CCCCCCCC(=O)SCC/C=C/[C@@H]1CC(=O)NCc2cccc(n2)CN(Cc2ccc3ccccc3c2)CC(=O)N[C@@H](C(C)C)C(=O)O1
# output Criterion met

# input Proceed to CSC(Cc1ccc2c(c1)Sc1ccccc1O2)=[N+]1CCOCC1
# output Criterion met

# input # repeat for COc1ccc(Nc2nc3c(N)cc(C(F)(F)F)cc3nc2-c2ccccc2)cc1OC
# output Criterion met

# input Follow-up item: NC1=NS(=O)(=O)Nc2nc(-c3ccc(Cl)cc3)[nH]c21
# output Criterion met

# input Item: C[Si](C)(c1ccccc1)C1CC(=O)CC(=O)C1
# output Criterion not met

# input Would you kindly repeat that for CCOC(=O)/C(C#N)=C/c1ccc(SCc2ccco2)c([N+](=O)[O-])c1 ?
# output Criterion met

# input Now the same for CSc1ncnc2c1cnn2Cc1cn(CCCCO)nn1
# output Criterion met

# input Same again, this time with COc1nc(NC2OCC(OC(C)=O)C(OC(C)=O)C2OC(C)=O)c(-c2csc(N)n2)c(=O)n1C (centres undefined)
# output Criterion met

# input What do you have for COc1ccc2nc3cccc([N+](=O)[O-])c3c(NCCNCCO)c2c1 ?
# output Criterion not met

# input Quick one: COC1(OC)CC(CO)(CNc2nc(N)nc(Cl)c2C=O)C1
# output Criterion not met

# input Try C/C=C1\C(=O)O[C@H]2C/C(C)=C/CC/C(C)=C/CC[C@@]3(C)O[C@@H]3C[C@@H]12 next.
# output Criterion met

# input Lookup COc1ccc(Nc2nc3cc(C(F)(F)F)ccc3nc2C(=O)O)cc1
# output Criterion met

# input # iterate: Cc1ccc(NC(=O)SCCC(=O)O)cc1
# output Criterion met

# input Can you handle CC1(C)CC[C@]2(C(N)=O)CC[C@]3(C)C(=CC[C@@H]4[C@@]5(C)C/C(=C/c6cccnc6)C(=O)C(C)(C)[C@@H]5CC[C@]43C)[C@@H]2C1 next?
# output Criterion met

---

Tested on: MDA-MB-231 breast
procedure_summary: NCI tumour cell line growth inhibition, 48 h
readout_type: TGI

C=C1C(=O)O[C@H]2[C@H]1CC/C(COC(=O)CCCC(=O)OC/C1=C/CC[C@@]3(C)O[C@H]3[C@H]3OC(=O)C(=C)[C@@H]3CC1)=C\CC[C@@]1(C)O[C@@H]21	2.9 µM
COc1nc(Cl)nc(Cl)c1Cl (tested in a mixture with another compound)	> 39.1 µM

# input // lookup TGI for CC(=O)OCCOCn1c2c(c(=O)[nH]c1=O)CCC2
# output > 100 µM

Measured values drawn from PubChem BioAssay (NCI) for this set.
